tested on: HCT-116 colon; experiment: NCI-60 one-dose screen, 48 h (100 = growth as untreated, 0 = no growth, -100 = all killed); settings: 10 µM unless noted
About 83,000 compounds went through this panel and 20% of them were active in at least one assay; those are over-represented in the sample as a whole.
Label true when growth is strictly below 50%; otherwise label false.

* Cc1cc(Cl)c2c(N(C)C)cccc2n1 | false
* Cc1ccc(S(=O)(=O)Nc2ccc(-c3cc(-c4cccc(F)c4)c(C#N)c(=O)[nH]3)cc2)cc1 | true
* CC(=O)O[C@H]1CC[C@]2(C)[C@H]3CC=C4[C@@H]5[C@H](C)[C@@H](C)CC[C@]5(C(=O)NCCNCCNCCN)CC[C@@]4(C)[C@]3(C)CC[C@H]2C1(C)C | false
* CCc1nnc(NC(=O)c2ccoc2COc2ccccc2)s1 | true
* Cc1cc(N2CCCCC2)nc(N(CCCNc2ccnc3cc(Cl)ccc23)Cc2ccco2)n1 | true
* Cc1cc2nc3c4cc([N+](=O)[O-])cc([N+](=O)[O-])c4n(CCN(C)C)c3nc2cc1C | true
* OCC12CCCC(CO)(COC1)C2O (stereo not drawn) | false
* C[N+](C)(CCCCCC[N+](C)(C)C1c2ccccc2-c2ccccc21)C1c2ccccc2-c2ccccc21 | false
* CCCCC[C@H]1C/C=C2/C(=O)C(Cl)=C[C@@H]2C/C=C\CCCC(=O)O[C@@H](CCCCC)C/C=C2/C(=O)C(Cl)=C[C@@H]2C/C=C\CCCC(=O)O1 | true
* COc1cc2c(cc1-c1c(C)noc1C)ncc1nc(C3CCC(F)(F)CC3)n([C@@H](C)COC(F)F)c12 | true
* C=C1C(=O)O[C@H]2[C@H]1CC/C(COC(=O)NCCc1c[nH]c3ccccc13)=C\CC[C@@]1(C)O[C@@H]21 | true
* COc1ccc2c(c1)c(-c1nc(-c3c[nH]c4ncccc34)cs1)cn2C | false
* COc1cc2nc(Cl)nc(Nc3cccc(C(=O)/C=C/c4ccccc4)c3)c2cc1OC | true

###

system: NCI/ADR-RES ovarian; assay: NCI-60 one-dose screen, 48 h (100 = growth as untreated, 0 = no growth, -100 = all killed); settings: 10 µM unless noted
This is part of a sample that, as a whole, favours compounds with a hit. Of some 83,000 tested, about 20% had one in any assay.
endpoint_label: growth (%)

* N#CC1=C(N)Oc2c(c(N)nn2-c2ccccc2)C1c1ccc(Cl)cc1Cl (stereo unspecified) | 100
* Cn1cc(-c2csc(-c3cn(CCCN4CCCCC4)c4ccccc34)n2)c2cccnc21 | -25
* O=[N+]([O-])c1cc(S(=O)(=O)c2ccc(F)c([N+](=O)[O-])c2)ccc1F | 108
* O=S(=O)(NCCNc1cc(-c2cn(-c3ccccc3)nc2-c2cccc(O)c2)ccn1)c1ccccc1 | 43.9
* C=C(C)[C@@H]1CC[C@]2(C=O)CC[C@]3(C)[C@H](CC[C@@H]4[C@@]5(C)C/C(=C/c6cccnc6)C(=O)C(C)(C)[C@@H]5CC[C@]43C)[C@@H]12 | 78.5
* O=P(O)(c1ccccc1)c1ccccc1I | 98.8

###

tested on: SF-539 CNS; assay: NCI-60 one-dose screen, 48 h (100 = growth as untreated, 0 = no growth, -100 = all killed); conditions: 10 µM unless noted
The panel holds about 83,000 compounds, 20% with a hit somewhere; the sample as a whole holds those more often.
endpoint_label: growth (%)

* CC(=O)Cc1nsc(NC(=O)c2ccoc2COc2ccccc2)n1 | 91.6
* Cc1c(C)c2c(c(C)c1NC(=O)CCCCCCC(=O)O)CCC(C)(CCCC(C)CCCC(C)CCCC(C)C)O2 (stereo not drawn) | 89.9
* O=C1/C(=C\c2ccco2)SC(=S)N1CCc1ccc(O)cc1 | 88.5

###

tested on: OVCAR-8 ovarian; assay: NCI-60 one-dose screen, 48 h (100 = growth as untreated, 0 = no growth, -100 = all killed); conditions: 10 µM unless noted
The panel holds about 83,000 compounds, 20% with a hit somewhere; the sample as a whole holds those more often.
endpoint_label: growth (%)

- C=C1C(=O)O[C@H]2[C@H]1CC/C(COC(=O)NCCc1c[nH]c3ccccc13)=C\CC[C@@]1(C)O[C@@H]21: 36.4
- N#Cc1cnc2cc(OC[C@@H](O)CO)c(NC(=O)C3CCCC3)cc2c1Nc1ccc(OCc2cccc(F)c2)c(Cl)c1: -13.6
- CNC(=O)c1cc(Oc2ccc3nc(NC(=O)Nc4ccc(Cl)cc4)sc3c2)ccn1: 57.2
- CCN(CC)C(=O)CCCCCn1c2ccccc2c2c3c(c4c5ccccc5[nH]c4c21)C(=O)N(O)C3=O: 20.8
- N#CCCCCCn1c2ccccc2c2c3c(c4c5ccccc5n(CCCCCC#N)c4c21)C(=O)N(O)C3=O: 69.4

###

// reported growth for each item listed
system: ACHN renal; experiment: NCI-60 one-dose screen, 48 h (100 = growth as untreated, 0 = no growth, -100 = all killed); settings: 10 µM unless noted
Compounds without any hit were thinned out: in the full panel of roughly 83,000, 20% have a hit.
endpoint_label: growth (%)

* Cc1cc(N(CCCNc2ccnc3cc(Cl)ccc23)Cc2ccco2)nc(Cl)n1 | 64.8
* O=C(O)/C(=C/c1ccc(O)cc1)c1ccccc1 | 101
* Cc1csc(-c2ccc3c(c2)COC3(CCCN(C)C)c2ccc(F)cc2)c1 (stereo not drawn) | 63.6

###

tested on: CCRF-CEM leukemia; test: NCI-60 one-dose screen, 48 h; details: 10 µM unless noted
The panel holds about 83,000 compounds, 20% with a hit somewhere; the sample as a whole holds those more often. The source made the active and inactive calls. The calls were made as follows: active = growth percent below 10; inactive = the rest.
Outcomes: true for active, false for inactive

• N#Cc1c(-c2ccco2)nc2c(c(-c3ccccc3)nn2-c2ccccc2)c1-c1ccc(O)cc1 = false
• C#Cc1cccc(NC(=O)C2CCCN(C(=O)CCl)C2)c1 (centres undefined) = true
• Cn1c(=O)c2c(nc(Br)n2CC(=O)Nc2ccc(F)cc2)n(C)c1=O = false
• Oc1ccc(Nc2ccccc2)cc1 = true

###

tested on: T-47D breast; assay: NCI-60 one-dose screen, 48 h; conditions: 10 µM unless noted
The panel holds about 83,000 compounds, 20% with a hit somewhere; the sample as a whole holds those more often. Activity calls are given as the source filed them. Rule for the calls: active = growth percent below 10; inactive = the rest.
Outcomes: active, inactive

• COc1ccc(-n2c(/C=C/c3ccc(O)c(OC)c3)cc(/C=C/c3ccc(O)c(OC)c3)nc2=O)cc1 = inactive
• O=C(c1ccccc1)C(CN1CCOCC1)c1ccccc1 (stereo not drawn) = inactive
• C=C(C)[C@@H]1CC[C@]2(C(=O)N3CCCNCC3)CC[C@]3(C)[C@H](CC[C@@H]4[C@@]5(C)CCC(=O)C(C)(C)[C@@H]5CC[C@]43C)[C@@H]12 = inactive
• CCN(CC)c1ccc(/C=C/c2cc(C)c3ccccc3n2)cc1 = inactive
• COc1cc2c3c(c4c5ccccc5[nH]c4c2c(OC)c1OC)C(=O)N(O)C3=O = inactive
• COc1ccc(/C=C/C(=O)NCCO)cc1 = inactive
• Nc1c2c(nc3ccc(Cl)cc13)CC(c1ccccc1)CC2=O (stereo not drawn) = inactive
• O=c1[nH]ncc(Br)c1Br = inactive
• NCCn1cc(-c2nc(-c3c[nH]c4ncccc34)cs2)c2cc(Br)ccc21 = inactive
• Cc1ccc2c(c1)c(-c1nc(-c3c[nH]c4ncccc34)cs1)cn2C = inactive
• CC1(C)CC[C@]2(C(=O)NCCNCCN)CC[C@]3(C)C(=CC[C@@H]4[C@@]5(C)CCC(=O)C(C)(C)[C@@H]5CC[C@]43C)[C@@H]2C1 = active
• N#C/C(=C\c1ccc(-c2cccc(C(F)(F)F)c2)o1)c1nc(-c2ccco2)cs1 = active
• N#CCCCCCn1c2ccccc2c2c3c(c4c5ccccc5n(CCCCCC#N)c4c21)C(=O)N(O)C3=O = inactive
• N#Cc1c(-c2ccco2)nc2c(c(-c3ccccc3)nn2-c2ccccc2)c1-c1ccc(O)cc1 = inactive
• Cn1cc(-c2nc(-c3c[nH]c4ncccc34)cs2)c2cc(F)ccc21 = inactive
• Cc1cccc(C)c1NC(=O)CSC(=S)N1CCCCC1 = inactive
• C=C(C)[C@@H]1CC[C@]2(C)CC[C@]3(C)[C@H](CC[C@@H]4[C@@]5(C)CCCNC(C)(C)[C@@H]5CC[C@]43C)[C@@H]12 = inactive
• COc1ccc2c(c1)c1nc3cc(C)c(C)cc3nc1n2CCN(C)C = inactive
• CCc1ccccc1NC(=O)c1sc2nc3c(cc2c1N)CCCC3 = inactive
• CC[C@]12C=CCN3CC[C@@]4(c5cc([C@H]6CCC(=O)N6)c(OC)cc5N(C)[C@H]4[C@@](O)(C(=O)OC)[C@@H]1OC(C)=O)[C@@H]32 = inactive
• Nc1ccc(Cl)cn1 = inactive
• CC(C)c1cc(C(=O)O)c(O)c(C(C)C)c1.CC(C)c1cc(C(=O)O)c(O)c(C(C)C)c1.[Mn] = inactive
• O=C(NCN1C(=O)c2cccc3cccc(c23)C1=O)N1CCC(Cc2ccccc2)CC1 = inactive
